Data origin, for the record: patent US11066436B2

The following molecules have recorded pIC50 on hDcpS enzyme (Homo sapiens).
pIC50: −log10 of the molar value.

molecule | pIC50
COC1C(O)[C@@H](CSP(=O)([O-])OP(=O)(O)OP(=O)(O)OC[C@H]2O[C@@H](n3cnc4c(=O)[nH]c(N)nc43)C(O)C2O)O[C@H]1n1c[n+](C)c2c(O)nc(N)nc21 (stereo partly drawn) | 4.90
C[n+]1cn([C@@H]2O[C@H](CSP(=O)([O-])OP(=O)(O)OC[C@H]3O[C@@H](n4cnc5c(=O)[nH]c(N)nc54)C(O)C3O)C(O)C2O)c2nc(N)nc(O)c21 (stereo in doubt) | 5.55
C[n+]1cn([C@@H]2O[C@H](CSP(=O)([O-])OP(=O)(O)OP(=O)(O)OC[C@H]3O[C@@H](n4cnc5c(=O)[nH]c(N)nc54)C(O)C3O)C(O)C2O)c2nc(N)nc(O)c21 (stereo partly drawn) | 6.08

* * *

# IC50 per record follows
# tested-on: hDcpS enzyme (Homo sapiens)
# Sequence (Q96C86 1-337): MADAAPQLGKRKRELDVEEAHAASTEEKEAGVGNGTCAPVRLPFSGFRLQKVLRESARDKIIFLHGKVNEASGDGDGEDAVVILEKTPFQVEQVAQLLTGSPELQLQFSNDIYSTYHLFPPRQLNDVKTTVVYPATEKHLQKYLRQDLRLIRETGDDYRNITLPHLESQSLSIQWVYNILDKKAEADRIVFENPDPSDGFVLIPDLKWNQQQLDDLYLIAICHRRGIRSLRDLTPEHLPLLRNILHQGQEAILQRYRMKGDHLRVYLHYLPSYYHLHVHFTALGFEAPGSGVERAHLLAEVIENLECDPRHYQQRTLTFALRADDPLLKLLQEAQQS

molecule | IC50
C[n+]1cn([C@@H]2O[C@H](CSP(=O)(O)OP(=O)([S-])OP(=O)(O)OC[C@H]3O[C@@H](n4cnc5c(=O)[nH]c(N)nc54)C(O)C3O)C(O)C2O)c2nc(N)nc(O)c21 (stereo partly drawn) [compound 30] | 0.23 µM
C[n+]1cn([C@@H]2O[C@H](CSP(=O)([O-])OP(=O)(O)OP(=O)(O)SC[C@H]3O[C@@H](n4cnc5c(=O)[nH]c(N)nc54)C(O)C3O)C(O)C2O)c2nc(N)nc(O)c21 (stereo partly drawn) | 0.33 µM
COC1C(O)[C@@H](COP(=O)(O)OP(=O)(O)OP(=O)([O-])SC[C@H]2O[C@@H](n3cnc4c(=O)[nH]c(N)nc43)C(O)C2O)O[C@H]1n1c[n+](C)c2c(O)nc(N)nc21 (stereo partly drawn) | 72 µM

* * *

# tested-on: hDcpS enzyme (Homo sapiens)
parameter-measured: IC50 (µM)

molecule | parameter-measured | obs-value
C[n+]1cn([C@@H]2O[C@H](COP(=O)(O)CP(=O)(O)OP(=O)([O-])SC[C@H]3O[C@@H](n4cnc5c(=O)[nH]c(N)nc54)C(O)C3O)C(O)C2O)c2nc(N)nc(O)c21 (stereo partly shown) [compound 37] | IC50 | 5.67
C[n+]1cn([C@@H]2O[C@H](CSP(=O)([O-])OP(=O)(O)O)C(O)[C@@H]2O)c2nc(N)nc(O)c21 (stereo partly shown) [compound 12] | IC50 | 1.93
C[n+]1cn([C@@H]2O[C@H](CSP(=O)([O-])OP(=O)(O)CP(=O)(O)OC[C@H]3O[C@@H](n4cnc5c(=O)[nH]c(N)nc54)C(O)C3O)C(O)C2O)c2nc(N)nc(O)c21 (stereo partly shown) [compound 25] | IC50 | 6.25
C[n+]1cn([C@@H]2O[C@H](CSP(=O)(O)OP(=O)([S-])OP(=O)(O)SC[C@H]3O[C@@H](n4cnc5c(=O)[nH]c(N)nc54)C(O)C3O)C(O)C2O)c2nc(N)nc(O)c21 (single isomer, unassigned) [compound 34] | IC50 | 0.051
